Data origin, for the record: patent US20230295324A1

Target: T1, human OX40 on cells (CHO-K1/hu OX40) (human, UniProt P43489 29-277)
T1 construct: whole, on cells; Also used here for OX40 on the HEK293/OX40/NF-kb reporter cells and on human T cells in the functional assays; also called CHO-K1/OX40; human OX40 cells
T1 sequence (looked up): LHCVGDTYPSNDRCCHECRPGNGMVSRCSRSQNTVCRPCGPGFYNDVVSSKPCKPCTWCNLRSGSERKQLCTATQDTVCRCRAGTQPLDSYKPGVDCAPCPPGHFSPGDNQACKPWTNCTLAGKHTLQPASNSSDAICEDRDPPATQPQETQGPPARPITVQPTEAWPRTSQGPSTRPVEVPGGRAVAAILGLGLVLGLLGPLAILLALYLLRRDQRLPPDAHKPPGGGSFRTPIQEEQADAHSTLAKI
Test: FACS, blocking of biotin-human OX40L on CHO-K1/hu OX40 cells
Test readout: Maximum inhibition rate (%)
The response must be a number in % with no trailing unit.

PR002066 (antibody, human IgG1, V domains shown, no light chain; also called anti-OX40 HCAb antibody) VH: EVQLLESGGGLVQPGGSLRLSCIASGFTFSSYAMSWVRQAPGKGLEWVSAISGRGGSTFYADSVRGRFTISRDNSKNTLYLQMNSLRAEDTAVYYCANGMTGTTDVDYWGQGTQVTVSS    58

Reported Maximum inhibition rate (%) for PR002071 (antibody, human IgG1, V domains shown, no light chain; also called anti-OX40 HCAb antibody) VH: EVQLVESGGGLVQPGGSLRLSCAASGFTFSSYAMSWVRQAPGKGLEWVSAISGGGGSIFYADSVRGRFTISRDNSKNTLYLQMNSLRAEDTAVYYCANGMTGTTDVDYWGQGTLVTVSS was 50

Reported Maximum inhibition rate (%) for PR002062 (antibody, human IgG1, V domains shown, no light chain; also called anti-OX40 HCAb antibody) VH: EVQLLESGGGLVQPGGSLRLSCAASGFTFSSYAMSWVRQAPGKGQEWVSAISGSGGSTFYADSVRGRFTISRDNSKNTLYLQMSSLRAEDTAVYYCANGMTGTTDVDYWGQGTLVTVSS was 13

Reported Maximum inhibition rate (%) for PR002055 (antibody, human IgG1, V domains shown, no light chain; also called anti-OX40 HCAb antibody) VH: EVQLLESGGGLVQPGGSLRLSCAASGLTFSSYAMSWVRQAPGKGLEWISAISGGGGSTYYADSVRGRFTISRDNSKNTLYLQMNSLRAEDTAVYYCANGMTGSTDVDYWGQGTLVTVSS was 19

Reported Maximum inhibition rate (%) for PR002061 (antibody, human IgG1, V domains shown, no light chain; also called anti-OX40 HCAb antibody) VH: EVQLLESGGGLVQPGGSLRLSCAASGFTFSSYAMSWVRQAPGKGLEWVSAISGRGGSTYYADSVRGRFTISRDNSKNTLYLQMNSLRAEDTAVYYCANGMTGTTDVDYWGQGTLVTVSS was 16

Reported Maximum inhibition rate (%) for PR002069 (antibody, human IgG1, V domains shown, no light chain; also called anti-OX40 HCAb antibody) VH: EVQLLESGGGLVQPGGSLRLSCAASGFTFSSYAMSWVRQAPGKGREWVSAISGGGGNTFYADSVRGRFTISRDNSKNTLYLQMNSLRAEDTAVYYCANGVTGTTDVDYWGQGTLVTVSS was 53

Reported Maximum inhibition rate (%) for PR002063 (antibody, human IgG1, V domains shown, no light chain; also called anti-OX40 HCAb antibody) VH: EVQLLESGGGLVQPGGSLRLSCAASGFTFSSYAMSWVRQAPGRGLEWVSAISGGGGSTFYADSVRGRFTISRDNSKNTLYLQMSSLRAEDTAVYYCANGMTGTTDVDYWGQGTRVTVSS was 17
